As shown below, each of these molecules has a reported growth inhibition value.
ASSAY_REMARKS: Restrictive medium S. cerevisiae growth inhibition, OD615, pilot screen of yeast lifespan reduction project, restrictive growth control (AID 706);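 note: modified DeaD lifespan yeast strain shifted to restrictive glucose medium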
STUDY_CONDITIONS: OD615, 48 h, at 10 µM, active compounds read high
Activity calls are given as the source filed them.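 Rule for the calls: active = growth inhibition above a set limit, 3 SD over mean compound inhibition, in both replicates (cut at about 43% in these data); inconclusive = above the limit in only one replicate; inactive = at or below the limit in both replicates.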

{"columns": ["MOLECULE", "growth inhibition"],
 "data": [
  ["O=C(Nc1ccc(N2CCOCC2)cc1)NC1CCCCC1", "1.07% (inactive)"],
  ["CCc1nccn1S(=O)(=O)c1ccc(OC)c(OC)c1", "-10% (inactive)"],
  ["CCCCN(C)CCC(=O)Nc1ccc(OC)cc1OC", "-1.21% (inactive)"],
  ["Cn1c(=O)oc2cc(S(=O)(=O)N3CCCC(C(=O)N4CCn5c4nc4ccccc45)C3)ccc21 (configuration not stated)", "-7.74% (inactive)"],
  ["CCCC12CN3CC(CCC)(CN(C1)C3C(O)C(O)C(O)CO)C2=O (configuration not stated)", "7.78% (inactive)"],
  ["C=CCn1c(=N)n(CC(O)COc2ccc(OC)cc2)c2ccccc21 (configuration not stated)", "1.67% (inactive)"],
  ["CN(C)c1nc(N)nc(N(c2ccccc2)c2ccccc2)n1", "-28.1% (inactive)"],
  ["Cc1noc(C)c1S(=O)(=O)NCc1ccc2c(c1)OCO2", "-6.16% (inactive)"],
  ["CCCS(=O)(=O)N1CCn2c(nc3ccccc32)C1", "-2.62% (inactive)"],
  ["Cc1csc2ncc(C(=O)NCc3ccccn3)c(=O)n12", "3.67% (inactive)"],
  ["Cc1ccc(NC(=O)CCNS(=O)(=O)c2cccc3nonc23)cc1", "-8.23% (inactive)"],
  ["CCOc1ccc(NC(=O)N(C2CCCCC2)C2CCN(C(C)=O)CC2)cc1", "6.87% (inactive)"],
  ["Cn1cnnc1SCC(=O)c1ccc2c(c1)CCCC2", "12.5% (inactive)"],
  ["CCCN1CCN(CCCNC(=O)c2cc3c(=O)n(C)c4ccccc4c3n2C)CC1", "0.66% (inactive)"],
  ["Brc1cccc(-c2nnc3sc(CNCc4ccco4)cn23)c1", "47.3% (active)"],
  ["C=C(C)Cn1c(N2CCCC2)nc2c1c(=O)[nH]c(=O)n2C", "-5.8% (inactive)"],
  ["Cn1c(=O)oc2cc(S(=O)(=O)N3CCCC3)ccc21", "-7.37% (inactive)"],
  ["CCC(=O)N1C(C(=O)O)CSC1c1ccc(OC)cc1 (configuration not stated)", "6.29% (inactive)"],
  ["Cc1ccc(NC(=O)C2CCN(S(=O)(=O)c3cccc4cccnc34)CC2)nc1", "-7.59% (inactive)"],
  ["O=C(CCCc1ccccc1)NCCN1CCOCC1", "-5.57% (inactive)"],
  ["Cc1cc(C)cc(N(CC(=O)N2CCN(c3ccccc3)CC2)S(=O)(=O)c2c(C)noc2C)c1", "-10.2% (inactive)"],
  ["Cc1cccc(C2Nc3ccccc3C(=O)N2CCc2ccccc2)n1 (configuration not stated)", "-2.82% (inactive)"],
  ["COC(=O)CN1C(=O)C(O)(CC(=O)c2ccc(Br)cc2)c2ccccc21 (configuration not stated)", "11.5% (inactive)"],
  ["CCOC(=O)C1C(=O)NC(SC)=C(C#N)C1c1ccccc1F (configuration not stated)", "-17% (inactive)"],
  ["Cc1c(-n2cc(C(=O)O)c(=O)c3cc(F)c(N4CCCC4)c(F)c32)c(=O)n(-c2ccccc2)n1C", "-11.4% (inactive)"],
  ["CN1CCN(CCCNC(=O)c2ccc3c(c2)N(Cc2ccccc2)CCS3)CC1", "-12.1% (inactive)"],
  ["CSc1nnc(Cn2c(=O)sc3ccccc32)n1C", "-13% (inactive)"],
  ["CCN(CC)S(=O)(=O)c1ccc(C(=O)Nc2nnc(C(C)C)s2)cc1", "-1.79% (inactive)"],
  ["COCC(C)NC(=O)c1cc(-c2ccc(O)cc2)on1 (configuration not stated)", "4.68% (inactive)"],
  ["O=C(Nc1cccc(OC(F)(F)F)c1)c1ccc(Br)o1", "9.08% (inactive)"],
  ["CCOc1ccccc1NC(=O)CN1C(=O)COc2ccc(Cl)cc21", "-11.8% (inactive)"],
  ["CCOC(=O)N1CCN(c2ccc3nnnn3n2)CC1", "1.97% (inactive)"],
  ["Cc1oc(-c2ccccc2F)nc1CS(=O)CC(=O)NCc1ccc2c(c1)OCO2 (configuration not stated)", "2.87% (inactive)"],
  ["COc1ccc(CCN2CC(C#N)=C3c4cc(OC)c(OC)cc4CCN3C2)cc1OC", "3.84% (inactive)"],
  ["CCCc1cc(C(=O)Nc2sc(C)c(CC)c2C#N)no1", "-11.2% (inactive)"],
  ["Cc1ccc(Cl)cc1NC(=O)COC(=O)C1CCCC1", "-14.1% (inactive)"],
  ["COc1ccc(OC)c2c1sc(=NC(=O)C(C)(C)C)n2C", "6.31% (inactive)"],
  ["O=C1CCC(=O)N1CNc1cccnc1", "-12.2% (inactive)"],
  ["CC(=O)Nc1ccc(NC2(C)C(=O)c3ccccc3C2=O)cc1", "-3.77% (inactive)"],
  ["O=S(=O)(Nc1ccc(O)cc1)c1cccc2cccnc12", "-4.81% (inactive)"],
  ["O=C(CSc1ccccn1)c1ccc(F)cc1", "17.6% (inactive)"],
  ["COc1ccc(C(C)=O)cc1CSc1nnc(C)s1", "-8.14% (inactive)"],
  ["CC(C)c1nnc(NC(=O)c2ccc(S(=O)(=O)N3CCOCC3)cc2)s1", "-24.1% (inactive)"],
  ["Cc1ccccc1-c1nc(CN2CCC(C(=O)O)CC2)c(C)o1", "-0.365% (inactive)"],
  ["O=C(NCc1ccccn1)Nc1cccc(Cl)c1", "-9.4% (inactive)"],
  ["COc1cc(C2C(C(=O)OC(C)C)=C(C)Nc3ncnn32)cc(OC)c1OC (configuration not stated)", "-10.4% (inactive)"],
  ["CCOc1ccc(C2NC(=O)c3n[nH]c(C)c32)cc1 (configuration not stated)", "8.35% (inactive)"]
]}

---

ASSAY_REMARKS: growth suppression of beta-catenin knockout HCT116, pilot screen, human colon tumor cells (AID 823);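 note: 0% = wells killed by 20 µM Hyamine and 100% = untreated DMSO cell wells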
STUDY_CONDITIONS: CellTiter-Glo, 60 h, at 10 µM, active compounds read low
Inconclusive results are not listed. Calls of active or inactive are those of the source.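 The calls were made as follows: active = cell viability at or below a set limit in both duplicate runs, the limit being the all-compound median minus 4 SD (cut at about 23% in these data, passing the limit was not always enough); inconclusive = no clear call, values can overlap the other calls; inactive = the rest.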
viability values, listed per item

{"columns": ["COMPOUND", "viability"],
 "data": [
  ["Cc1occc1C(=O)Nc1nnc(-c2ccncc2)s1", "100% (inactive)"],
  ["C=CCOC(=O)C1=C(C)NC(=O)NC1c1ccc(Cl)cc1 (stereo unspecified)", "102% (inactive)"],
  ["Cc1ccc(C)c2[nH]c(=O)c(CCNC(=O)CC(C)C)cc12", "103% (inactive)"],
  ["C(=N\\n1cnnc1)/C1CCCCC1", "101% (inactive)"],
  ["CCOc1ccc2nc(NC(=O)COC)sc2c1", "102% (inactive)"],
  ["CCOc1ccccc1N(CC(=O)Nc1ccccc1C(=O)O)S(C)(=O)=O", "97.5% (inactive)"]
]}

---

// values below are reported growth inhibition
ASSAY_REMARKS: OD615 S. cerevisiae growth inhibition, permissive medium, pilot counter-assay, permissive growth control for S. cerevisiae lifespan shortening project (AID 705)
STUDY_CONDITIONS: OD615, 24 h, at 10 µM, active compounds read high
Active and inactive are the calls of the source.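 The calls were made as follows: active = growth inhibition above 25% in both replicates, a cutoff set 3 SD above the mean; inconclusive = above 25% in only one replicate; inactive = the rest.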

{"columns": ["MOLECULE", "growth inhibition"],
 "data": [
  ["COCN(C#N)c1nc(OC)nc(OC)n1", "0.79% (inactive)"],
  ["COc1ccc(-c2nc(CSCC(=O)N3CCC(C(N)=O)CC3)c(C)o2)cc1OC", "-2.87% (inactive)"],
  ["Cc1noc(C)c1S(=O)(=O)NCc1ccc2c(c1)OCO2", "-1.3% (inactive)"],
  ["CCOC(=O)COc1ccc2cc(C(=O)OCC)c(=O)oc2c1", "-4.38% (inactive)"],
  ["COc1ccccc1N(CC(=O)Nc1ccc2c(c1)OCO2)S(=O)(=O)c1ccccc1", "-5.44% (inactive)"],
  ["CCOC(=O)CSc1ccc2nnc(-c3ccccc3)n2n1", "-8.02% (inactive)"],
  ["Cc1cc(C)n(CC(=O)n2c3ccccc3c3ccccc32)n1", "5.86% (inactive)"],
  ["CCOC(=O)C1C(c2cccc(Cl)c2Cl)NC(=O)NC1(O)C(F)(F)F (stereo not drawn)", "-5.62% (inactive)"],
  ["CCOCCCNC(=O)Cn1nc(-c2ccccc2)ccc1=O", "-19.8% (inactive)"],
  ["O=S(=O)(c1ccc(Br)cc1)N1CCN(c2cc(-c3ccccc3)nc3ncnn23)CC1", "-4.71% (inactive)"],
  ["CC1CC(C)CN(c2nc3c(c(=O)[nH]c(=O)n3C)n2CCSc2nc3ccccc3o2)C1 (stereo not drawn)", "-8.58% (inactive)"],
  ["Cc1ccc(C(=O)CSC2=NC(N)=C(C#N)C3(CCCCC3)C2C(N)=O)cc1 (stereo not drawn)", "17.7% (inactive)"],
  ["Cc1nc2ccc(N)cc2s1", "-15.7% (inactive)"],
  ["CN1CCN(S(=O)(=O)c2ccc(NC(=O)c3cccc(S(=O)(=O)N4CCCC4)c3)cc2)CC1", "-5.16% (inactive)"],
  ["Cc1ccc(-n2nc3ccc(N)cc3n2)cc1", "-12.9% (inactive)"],
  ["C=C(C)c1cccc(C(C)(C)NC(=O)N2CCN(c3ccccn3)CC2)c1", "-11.1% (inactive)"],
  ["CCC1CCCCN1C(=O)c1cc2cc(Br)ccc2oc1=O (stereo not drawn)", "-9.03% (inactive)"],
  ["CNC(=O)c1c(NC(=O)c2ccc(S(=O)(=O)N3CCOCC3)cc2)sc2c1CCC2", "-0.09% (inactive)"],
  ["Cn1c(NC(=O)c2cccc(C(F)(F)F)c2)cc(=O)n(C)c1=O", "-16% (inactive)"],
  ["COc1ccccc1NC(=O)NCCN1C(=O)C2C3C=CC(C3)C2C1=O (stereo not drawn)", "-16.2% (inactive)"],
  ["CC(C)(C)NC(=O)Cn1c(=O)oc2cc(S(=O)(=O)N3CCc4ccccc43)ccc21", "0.45% (inactive)"],
  ["O=C(Cc1cccs1)Nc1nnc(-c2ccncc2)s1", "-0.91% (inactive)"],
  ["CCOC(=O)N1CCC(NC(=O)c2csc3c2CCCC3)CC1", "-3.1% (inactive)"]
]}
